The origin of these recorded values is patent US7462600B2.

Measured MIC S. pneumo. 1175, listed per entry.
tested on: Streptococcus pneumoniae 1175; assay type: cell-based; details: S. pneumoniae 1175 (mefA); microtiter broth dilution

Some solved cases for reference:
[
  {
    "MOLECULE": "CCC1OC(=O)C(C)C(=O)C(C)C(OC2OC(C)CC(N(C)C)C2O)C(C)(OC)CC(C)C(=O)C(C)C2N(CC3CCCN3C(=O)c3cc4cnccc4nc3C)C(=O)OC12C (stereo not drawn)",
    "MIC S. pneumo. 1175": "<0.06 µg/mL"
  },
  {
    "MOLECULE": "CCC1OC(=O)C(C)(F)C(=O)C(C)C(OC2OC(C)CC(N(C)C)C2O)C(C)(OC)CC(C)C(=O)C(C)C2N(CC3CCCN3C(=O)c3ccc4cccnc4n3)C(=O)OC12C (stereo not drawn)",
    "MIC S. pneumo. 1175": "0.12 µg/mL"
  },
  {
    "MOLECULE": "CC[C@H]1OC(=O)[C@H](C)C(=O)[C@H](C)[C@@H](O[C@@H]2O[C@H](C)C[C@H](N(C)C)[C@H]2O)[C@](C)(OC)C[C@@H](C)C(=O)[C@H](C)[C@H]2N(CC3(O)CN(Cc4ccc(-c5cncnc5)cc4)C3)C(=O)O[C@]12C",
    "MIC S. pneumo. 1175": "0.5 µg/mL"
  }
]

## Task // map CCC1OC(=O)C(C)C(=O)C(C)C(OC2OC(C)CC(N(C)C)C2O)C(C)(OC)CC(C)C(=O)C(C)C2N(CC3CCCN3C(=O)c3nccc4ccccc34)C(=O)OC12C.O=CO (stereo not drawn) to recorded MIC S. pneumo. 1175 (system: Streptococcus pneumoniae 1175)
## Result 0.12 µg/mL

## Task And then CCC1OC(=O)C(C)C(=O)C(C)C(OC2OC(C)CC(N(C)C)C2O)C(C)(OC)CC(C)C(=O)C(C)C2N(CC3CCCN3C(=O)c3cccc4ncoc34)C(=O)OC12C (stereo not drawn) , what is it?
## Result 1 µg/mL

## Task What do you get for CCC1OC(=O)C(C)C(=O)C(C)C(OC2OC(C)CC(N(C)C)C2O)C(C)(OC)CC(C)C(=O)C(C)C2N(CC3CCCN3C(=O)c3ccc4nccnc4c3)C(=O)OC12C.O=CO (stereo not drawn) ?
## Result 0.12 µg/mL

## Task What do you get for CCC1OC(=O)C(C)C(=O)C(C)C(OC2OC(C)CC(N(C)C)C2O)C(C)(OC)CC(C)C(=O)C(C)C2N(CC3CCCN3Cc3ccc(OC)nc3)C(=O)OC12C (stereo not drawn) ?
## Result 0.5 µg/mL

## Task Moving on to CCC1OC(=O)C(C)C(=O)C(C)C(OC2OC(C)CC(N(C)C)C2O)C(C)(OC)CC(C)C(=O)C(C)C2N(CC3CCN(C(=O)c4cnc5ccccc5n4)C3)C(=O)OC12C (stereo not drawn)
## Result 0.5 µg/mL

## Task For CCC1OC(=O)C(C)C(=O)C(C)C(OC2OC(C)CC(N(C)C)C2O)C(C)(OC)CC(C)C(=O)C(C)C2N(CC3CCN(Cc4cnn(-c5ccccn5)c4)C3)C(=O)OC12C (stereo not drawn) then?
## Result 0.25 µg/mL

----------
List of MIC H. influenzae 1218 values.
tested on: Haemophilus influenzae 1218; assay: MIC, microtiter broth dilution (NCCLS M100-S14), H. influenzae 1218 (susceptible); type: cell-based; details: Haemophilus influenzae 1218
Field format: number, assumed µg/mL, no unit text.

Below are worked cases with known answers.
[
  {
    "COMPOUND": "CCC1OC(=O)C(C)C(=O)C(C)C(OC2OC(C)CC(N(C)C)C2O)C(C)(OC)CC(C)C(=O)C(C)C2N(C3CN(Cc4ccccc4)C3)C(=O)OC12C (stereo not drawn)",
    "SYSTEM UNDER TEST": "Haemophilus influenzae 1218",
    "MIC H. influenzae 1218 (µg/mL)": 0.5
  },
  {
    "COMPOUND": "CCC1OC(=O)C(C)C(=O)C(C)C(OC2OC(C)CC(N(C)C)C2O)C(C)(OC)CC(C)C(=O)C(C)C2N(C3CN(S(=O)(=O)c4ccc(-c5ccn[nH]5)cc4)C3)C(=O)OC12C (stereo not drawn)",
    "SYSTEM UNDER TEST": "Haemophilus influenzae 1218",
    "MIC H. influenzae 1218 (µg/mL)": 0.5
  }
]

## Task Recorded MIC H. influenzae 1218 of CCC1OC(=O)C(C)C(=O)C(C)C(OC2OC(C)CC(N(C)C)C2O)C(C)(OC)CC(C)C(=O)C(C)C2N(C3CN(S(=O)(=O)c4cccc(F)c4)C3)C(=O)OC12C (stereo not drawn) , please.
## Result 0.5
